Entries and their measured Binding of serum London to linear peptides of protein M of SARS-CoV Urbani follow.
Tested on: antibodies in sera from SARS patients (sera 1a, 1b, 2, 6, 37, 62, London, SARS-yellow, SARS-green)
Assay type: binding, human

Could you share which Binding of serum London to linear peptides of protein M of SARS-CoV Urbani value was measured for LMWLSYFVASFRLFA ?
0.3

Okay, and FARTRSMWSFNPETN ?
0.4

Okay, and DIKDLPKEITVATSR ?
0.4

Okay, and MESELVIGAVIIRGH ?
0.4

Okay, and LVIGFLFLAWIMLLQ ?
0.3

Okay, and VFLWLLWPVTLACFV ?
0.5

Okay, and VYRINWVTGGIAIAM ?
0.6

Okay, and RCDIKDLPKEITVAT ?
0.3

Next sequence, please.
Could you share which Binding of serum London to linear peptides of protein M of SARS-CoV Urbani value was measured for LKQLLEQWNLVIGFL ?
1.0
